- measurement notes: PAMPA (parallel artificial membrane permeability assay)
- Assay type: in vitro ADME
- condition info: PAMPA; membrane permeation rate (Pe); 50 mM MOPSO buffer pH 6.5 with 5.0% glycocholic acid, 37° C., 18 hours; read-out: iPAMPA Pe
Starred links: 1 amine or outer side, 2 acyl side, 3 side chain; linkers in the order of their positions; H or OH if unused. Positions of bridges follow the written chain, without caps; N, C: chain ends. Non-standard residues stand in square brackets, D forms with d. Residues, ends and D or L forms follow the SMILES beside them. *: point of attachment. NMeF = CN[C@@H](Cc1ccccc1)C(=O)O; NMeGABA = CN(CCCC(=O)[*:2])[*:1]; NMeI = CC[C@H](C)[C@H](NC)C(=O)O; NMeβAla = CN(CCC(=O)[*:2])[*:1]; NMeL = CN[C@@H](CC(C)C)C(=O)O; NMeV = CN[C@H](C(=O)O)C(C)C; NMeA = CN[C@@H](C)C(=O)O; Piperidide = C1CCN(*)CC1; dNMeA = CN[C@H](C)C(=O)O; β3hA = C[C@H](N)CC(=O)O; Sar = CNCC(=O)O; tBu = CC(C)(C)*
parameter measured: Papp at 18 hours, 50 µM (×10⁻⁶ cm/s)
Unit ×10⁻⁶ cm/s implied. Number only.

Given CC[C@H](C)[C@H](NC(=O)[C@@H](NC(=O)[C@H](Cc1ccccc1)NC(=O)[C@H](CC(C)C)N(C)C(=O)[C@@H]1CC(=O)N(C)CCC(=O)N(C)[C@@H](C)C(=O)N[C@@H](CC(C)C)C(=O)N[C@@H]([C@@H](C)O)C(=O)N(C)[C@@H](Cc2ccccc2)C(=O)N(C)[C@@H](CC(C)C)C(=O)N(C)[C@@H](Cc2ccccc2)C(=O)N1)C(C)C)C(=O)N1CCCCC1 [DP-930] ([NMeβAla][NMeA]LT[NMeF][NMeL][NMeF]D[NMeL]FVI-Piperidide; lactam N-8) , state its recorded Papp at 18 hours, 50 µM.
0.46

Also need CC(C)C[C@H]1C(=O)N(C)[C@@H](C)C(=O)N[C@H](C(=O)N(C)[C@@H](Cc2ccccc2)C(=O)N(C)[C@@H](Cc2ccccc2)C(=O)N[C@@H](C)C(=O)N2CCCCC2)CC(=O)N(C)[C@H](C)C(=O)N(C)[C@@H](Cc2ccccc2)C(=O)N(C)CC(=O)N[C@@H]([C@@H](C)O)C(=O)N[C@@H](C)C(=O)N(C)[C@@H](C)C(=O)N1C [DP-463] ([dNMeA][NMeF][Sar]TA[NMeA][NMeL][NMeA]D[NMeF][NMeF]A-Piperidide; lactam N-9) , thanks.
3.1

// same read-out, input: CC(C)C[C@H]1C(=O)N(C)[C@@H](CC(C)C)C(=O)N[C@@H](C)CC(=O)N(C)CCCC(=O)N(C)[C@@H](Cc2ccccc2)C(=O)N[C@@H]([C@@H](C)O)C(=O)N(C)CC(=O)N[C@@H](COC(C)(C)C)C(=O)N1C [DP-795] (cyclo([NMeF]T[Sar]S(tBu)[NMeL][NMeL][β3hA][NMeGABA]))
19

Similarly, CC(C)C[C@@H]1NC(=O)CCN(C)C(=O)C[C@@H](C(=O)N2CCCCC2)NC(=O)[C@H](Cc2ccccc2)N(C)C(=O)CNC(=O)[C@H]([C@@H](C)O)NC(=O)[C@H](Cc2ccccc2)NC(=O)[C@H](CC(C)C)N(C)C(=O)[C@H](CC(C)C)NC(=O)[C@H](Cc2ccccc2)NC1=O [DP-117] ([NMeβAla]LFL[NMeL]FTG[NMeF]D-Piperidide; lactam N-10) ?
25

Cool, now CC[C@H](C)[C@H]1C(=O)N[C@@H](C)CC(=O)N(C)[C@H](C)C(=O)N(C)[C@@H](CC(C)C)C(=O)N(C)[C@@H](CC(C)C)C(=O)N[C@@H]([C@@H](C)O)C(=O)N(C)CC(=O)N[C@@H](COC(C)(C)C)C(=O)N(C)[C@@H](CC(C)C)C(=O)N1C [DP-800] (cyclo([NMeI][β3hA][dNMeA][NMeL][NMeL]T[Sar]S(tBu)[NMeL]))
25

Another: CC(C)C[C@H]1C(=O)N(C)[C@@H](Cc2ccccc2)C(=O)NCC(=O)N[C@H](C(=O)N2CCCCC2)CC(=O)N(C)CCCC(=O)N[C@@H]([C@@H](C)O)C(=O)N(C)[C@@H](C)C(=O)N(C)[C@@H](Cc2ccccc2)C(=O)N[C@@H](COC(C)(C)C)C(=O)N1C [DP-129] ([NMeGABA]T[NMeA][NMeF]S(tBu)[NMeL][NMeF]GD-Piperidide; lactam N-9)
17

Next up: CC[C@H](C)[C@@H]1NC(=O)[C@H](CC(C)C)N(C)C(=O)[C@H](Cc2ccccc2)N(C)C(=O)CN(C)C(=O)[C@H](C)N(C)C(=O)[C@H](Cc2ccccc2)N(C)C(=O)[C@H](C)N(C)C(=O)[C@H]([C@@H](C)O)NC(=O)[C@H](C(C)C)N(C)C(=O)CCN(C)C(=O)C[C@@H](C(=O)N2CCCCC2)NC1=O [DP-516] ([NMeβAla][NMeV]T[NMeA][NMeF][NMeA][Sar][NMeF][NMeL]ID-Piperidide; lactam N-11)
9.1

For CC[C@H](C)[C@H]1C(=O)N[C@@H](CC(C)C)C(=O)N(C)[C@@H](Cc2ccccc2)C(=O)N(C)[C@@H](CC(C)C)C(=O)N[C@@H]([C@@H](C)O)C(=O)N[C@@H](Cc2ccccc2)C(=O)N(C)[C@@H](C(C)C)C(=O)N[C@H](C(=O)N2CCCCC2)CC(=O)N(C)CC(=O)N[C@@H](C)C(=O)N1C [DP-145] ([Sar]A[NMeI]L[NMeF][NMeL]TF[NMeV]D-Piperidide; lactam N-10) then?
29

Same again, this time with CC[C@H](C)[C@H]1C(=O)N(C)CC(=O)N(C)[C@@H](C(C)C)C(=O)N[C@@H]([C@@H](C)O)C(=O)N[C@H](C(=O)N2CCCCC2)CC(=O)N[C@H](C(C)C)C(=O)N(C)[C@@H](C)C(=O)N(C)[C@@H](CC(C)C)C(=O)N[C@@H](CC(C)C)C(=O)N(C)[C@@H](Cc2ccccc2)C(=O)N[C@@H](Cc2ccccc2)C(=O)N1C [DP-233] ([dV][NMeA][NMeL]L[NMeF]F[NMeI][Sar][NMeV]TD-Piperidide; lactam N-11)
32

Quick one: CC[C@H](C)[C@H]1C(=O)N(C)[C@@H](CC(C)C)C(=O)N[C@@H](Cc2ccccc2)C(=O)N[C@@H]([C@@H](C)O)C(=O)N[C@@H](CC(C)C)C(=O)N(C)[C@@H](Cc2ccccc2)C(=O)N(C)[C@@H](C(C)C)C(=O)N[C@H](C(=O)N2CCCCC2)CC(=O)N[C@H](C)C(=O)N[C@@H](C)C(=O)N1C [DP-252] ([dA]A[NMeI][NMeL]FTL[NMeF][NMeV]D-Piperidide; lactam N-10)
47

Each recorded value in this set is attributed to patent US9409952B2.
